Value source: ChEMBL document CHEMBL4706632

- Tested on: LNCaP
- Protocol: Antiproliferative activity against human LNCaP cells incubated for 72 hrs by CCK8 assay
- Type: functional, cell-based
Recorded Metric: pIC50
pIC50 (log units): -log10 of the concentration in mol/L.

### Prompt Reported pIC50, compound CC(C)[C@]12O[C@H]1[C@@H]1O[C@@]13[C@@]1(C)CCC4=C(COC4=O)[C@@H]1C[C@@H]1O[C@@]13C2=O [TRIPTONIDE] : ____
### Response 8.00

====

- Test system: AGS
- Protocol: Cytotoxicity against human AGS cells incubated for 72 hrs by Alamar Blue method
- Type: functional, cell-based
Recorded Metric: IC50

### Prompt Please look up its IC50: CC(C)[C@]12O[C@H]1[C@@H]1O[C@@]13[C@@]1(C)CCC4=C(COC4=O)[C@@H]1C[C@@H]1O[C@@]13C2=O [TRIPTONIDE]
### Response < 20 nM

====

- Tested on: MDA-MB-435
- Protocol: Antiproliferative activity against human MDA-MB-435 cells incubated for 48 hrs by [3H]-thymidine incorporation assay
- Format: functional, cell-based
Each record here notes measured pIC50.
Would you please state pIC50, meaning minus log10 of the concentration in mol/L, as a bare number?

# annotated cases, reported pIC50 shown
[
  {
    "Entry Smiles": "CC1(C)OC(=O)C[C@H](O)[C@]2(C)[C@H]3CC[C@@]4(C)[C@H](c5ccoc5)OC(=O)[C@H]5O[C@]54[C@]3(C)C(=O)C[C@@H]12",
    "System": "MDA-MB-435",
    "pIC50": 6.82
  },
  {
    "Entry Smiles": "CC1(C)O[C@H]2CC(=O)OC[C@]23[C@H]2CC[C@@]4(C)[C@H](c5ccoc5)OC(=O)[C@H]5O[C@]54[C@]2(C)C(=O)C[C@@H]13",
    "System": "MDA-MB-435",
    "pIC50": 4.59
  },
  {
    "Entry Smiles": "CC1(C)O[C@H]2CC(=O)OC[C@@]23[C@H]1CC(=O)[C@@]1(C)C2=CC(=O)O[C@@H](c4ccoc4)[C@]2(C)CC[C@@H]13",
    "System": "MDA-MB-435",
    "pIC50": 5.77
  },
  {
    "Entry Smiles": "CC1(C)OC(=O)C=C[C@]2(C)[C@H]3CC[C@@]4(C)[C@H](c5ccoc5)OC(=O)[C@H]5O[C@]54[C@]3(C)C(=O)C[C@@H]12",
    "System": "MDA-MB-435",
    "pIC50": 5.17
  },
  {
    "Entry Smiles": "CC1(C)OC(=O)C=C[C@]2(C)[C@H]3CC[C@@](C)([C@@H](O[C@H]4O[C@H](CO)[C@@H](O)[C@H](O)[C@H]4O)c4ccoc4)[C@@]4(O[C@@H]4C(=O)O)[C@]3(C)C(=O)C[C@@H]12",
    "System": "MDA-MB-435",
    "pIC50": 5.00
  },
  {
    "Entry Smiles": "CC(=O)O[C@H]1CC(=O)OC(C)(C)[C@@H]2CC(=O)[C@]3(C)[C@H](CC[C@@]4(C)[C@H](c5ccoc5)OC(=O)[C@H]5O[C@]543)[C@@]12C",
    "System": "MDA-MB-435",
    "pIC50": 6.11
  }
]

Next compound, pIC50 to be filled in.
### Prompt pIC50 of CC1(C)O[C@H]2CC(=O)OC[C@]23[C@H]2CC[C@@](C)([C@@H](O[C@H]4O[C@H](CO)[C@@H](O)[C@H](O)[C@H]4O)c4ccoc4)[C@@]4(O[C@@H]4C(=O)O)[C@]2(C)C(=O)C[C@@H]13 on MDA-MB-435?
### Response 3.92
